All values here come from patent US20110301087A1.

Target Of Assay: CRF1 (Homo sapiens, UniProt P34998)
Construct: endogenously expresses functional CRF1; endogenous in cells; host or cells: Y-79 human retinoblastoma cells
Sequence (P34998 24-415): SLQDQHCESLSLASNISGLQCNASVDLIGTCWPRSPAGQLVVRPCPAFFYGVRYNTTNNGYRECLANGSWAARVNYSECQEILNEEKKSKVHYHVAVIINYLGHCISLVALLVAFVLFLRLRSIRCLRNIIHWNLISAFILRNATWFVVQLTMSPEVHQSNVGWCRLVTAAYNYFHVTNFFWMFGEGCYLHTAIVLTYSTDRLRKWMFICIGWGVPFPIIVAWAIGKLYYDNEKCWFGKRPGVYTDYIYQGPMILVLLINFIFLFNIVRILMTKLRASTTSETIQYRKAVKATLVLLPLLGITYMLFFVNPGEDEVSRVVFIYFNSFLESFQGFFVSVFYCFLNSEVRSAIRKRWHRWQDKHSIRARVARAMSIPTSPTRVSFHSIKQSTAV
Experimental Details: CRF1 assessment of cAMP (HTRF cAMP assay) in Y-79 cells, antagonist mode
Assay type: cell-based
Test Context: Y79 cells, 300 nM pepducin against agonist dose response; read-out: % Inhibition (± SD)
Where a SMILES comes first, the peptide text is derived from it. [ ]: non-standard residue; d: D form. The star is where a group is joined. Palmitoyl = CCCCCCCCCCCCCCCC(=O)*; Nle = CCCC[C@H](N)C(=O)O
Recorded Metric: inhibition at 0.3 µM (%)
Supply the numeric figure in %, leaving out any unit text.

GET inhibition at 0.3 µM where system = CRF1 (Homo sapiens, UniProt P34998) and item = CCCCCCCCCCCCCCCC(=O)NCC(=O)N[C@@H](CO)C(=O)N[C@H](C(=O)N[C@@H](CC(=O)O)C(=O)N[C@@H](CCCNC(=N)N)C(=O)N[C@@H](CC(C)C)C(=O)N[C@@H](CCCNC(=N)N)C(=O)N[C@@H](CCCCN)C(=O)N[C@@H](Cc1c[nH]c2ccccc12)C(=O)N[C@@H](CCSC)C(=O)N[C@@H](C)C(=O)N[C@H](C(N)=O)[C@@H](C)CC)[C@@H](C)O [Compound 38] (Palmitoyl-GSTDRLRKWMAI-NH2) 60

State inhibition at 0.3 µM on CRF1 (Homo sapiens, UniProt P34998). Entry: CCCCCCCCCCCCCCCC(=O)NCC(=O)N[C@@H](CO)C(=O)N[C@H](C(=O)N[C@@H](CC(=O)O)C(=O)N[C@@H](CCCNC(=N)N)C(=O)N[C@@H](CC(C)C)C(=O)N[C@@H](CCCNC(=N)N)C(=O)N[C@@H](CCCCN)C(=O)N[C@@H](C)C(=O)N[C@@H](CCCC)C(=O)N[C@@H](Cc1ccccc1)C(=O)N[C@H](C(N)=O)[C@@H](C)CC)[C@@H](C)O [Compound 53] (Palmitoyl-GSTDRLRKA[Nle]FI-NH2) 50

Supply inhibition at 0.3 µM measured with CRF1 (Homo sapiens, UniProt P34998) for CCCCCCCCCCCCCCCC(=O)N[C@@H](CCCNC(=N)N)C(=O)N[C@@H](CC(C)C)C(=O)N[C@@H](CCCNC(=N)N)C(=O)N[C@@H](CCCCN)C(=O)N[C@@H](Cc1c[nH]c2ccccc12)C(=O)N[C@@H](CCSC)C(=O)N[C@@H](C)C(=O)N[C@H](C(N)=O)[C@@H](C)CC [Compound 41] (Palmitoyl-RLRKWMAI-NH2) . 40

Answer with inhibition at 0.3 µM of CCCCCCCCCCCCCCCC(=O)N[C@@H](C)C(=O)N[C@@H](CO)C(=O)N[C@H](C(=O)N[C@H](C(=O)N[C@@H](CO)C(=O)N[C@@H](CCC(=O)O)C(=O)N[C@H](C(=O)N[C@H](C(=O)N[C@@H](CCC(N)=O)C(=O)N[C@@H](Cc1ccc(O)cc1)C(=O)N[C@@H](CCCNC(=N)N)C(=O)N[C@@H](CCCCN)C(=O)N[C@@H](C)C(=O)N[C@H](C(=O)N[C@@H](CCCCN)C(=O)N[C@@H](CO)C(N)=O)C(C)C)[C@@H](C)CC)[C@@H](C)O)[C@@H](C)O)[C@@H](C)O [Compound 62] (Palmitoyl-ASTTSETIQYRKAVKS-NH2) measured for CRF1 (Homo sapiens, UniProt P34998). 50

Give inhibition at 0.3 µM; test system CRF1 (Homo sapiens, UniProt P34998); molecule CCCCCCCCCCCCCCCC(=O)N[C@@H](C)C(=O)N[C@@H](CC(=O)O)C(=O)N[C@@H](CCCNC(=N)N)C(=O)N[C@@H](CC(C)C)C(=O)N[C@@H](CCCNC(=N)N)C(=O)N[C@@H](CCCCN)C(=O)N[C@@H](Cc1c[nH]c2ccccc12)C(=O)N[C@@H](CCSC)C(=O)N[C@@H](Cc1ccccc1)C(=O)N[C@H](C(N)=O)[C@@H](C)CC [Compound 44] (Palmitoyl-ADRLRKWMFI-NH2) 42

Report measured inhibition at 0.3 µM on CRF1 (Homo sapiens, UniProt P34998); entry: CCCCCCCCCCCCCCCC(=O)NCC(=O)N[C@@H](CO)C(=O)NCC(=O)N[C@@H](CCCNC(=N)N)C(=O)N[C@@H](CC(C)C)C(=O)N[C@@H](CCCNC(=N)N)C(=O)N[C@@H](CCCCN)C(=O)N[C@@H](Cc1c[nH]c2ccccc12)C(=O)N[C@@H](CCSC)C(=O)N[C@@H](Cc1ccccc1)C(=O)N[C@H](C(N)=O)[C@@H](C)CC [Compound 26] (Palmitoyl-GSGRLRKWMFI-NH2) 63
